Tested on: smallflower flatsedge (Cyperus difformis)
experiment.notes: Test B flood test
Assay type: in vivo
measurement.parameters: Rate 62 g/ha, Postemergence (flood test)
Plant response rating, S. Flatsedge: recorded values

substance.smiles: Cc1cnc(-c2ccc(Cl)cc2)nc1Cc1cccc(C(F)(F)F)c1
Plant response rating, S. Flatsedge: 5

substance.smiles: Cc1cnc(-c2ccc(C#N)cc2)nc1Cc1cccc(C#N)c1
Plant response rating, S. Flatsedge: 2

substance.smiles: Cc1cnc(-c2ccc(C(F)(F)F)cc2)nc1Cn1cnc(C(F)(F)F)c1
Plant response rating, S. Flatsedge: 6

substance.smiles: Cc1cnc(-c2ccc(F)cc2F)nc1Cc1cccc(C#N)c1
Plant response rating, S. Flatsedge: 2

substance.smiles: Cc1cnc(-c2ccc(C(F)(F)F)cc2)nc1Cc1cccc(C#N)c1
Plant response rating, S. Flatsedge: 2

###

Plant response rating, Itchgrass: recorded values
System: itchgrass (Rottboellia exaltata)
experiment.notes: Test E pre-/postemergence/post directed
Assay type: in vivo
measurement.parameters: PREEMERGENCE, Rate 250 g/ha

molecule: Cc1cnc(-n2ccc(C(F)(F)F)n2)nc1Cc1cccc(OC(F)(F)F)c1 [Compound 42]
Plant response rating, Itchgrass: 70
//
molecule: Cc1cnc(-c2ccc(C(F)(F)F)cc2)nc1Cc1cccc(C(F)(F)F)c1 [Example 1]
Plant response rating, Itchgrass: 95
//
molecule: Cc1cnc(-n2cnc(C(F)(F)F)n2)nc1C(=O)c1cccc(C(F)(F)F)c1 [Compound 67]
Plant response rating, Itchgrass: 80
//
molecule: Cc1cnc(-n2cnc(C(F)(F)F)c2)nc1Cc1cccc(C(F)(F)F)c1 [Compound 44]
Plant response rating, Itchgrass: 40
//
molecule: Cc1cnc(-n2ccc(C(F)(F)F)n2)nc1Cc1cccc(C(F)(F)F)c1 [Example 2]
Plant response rating, Itchgrass: 95
//
molecule: Cc1cnc(-c2ccc(C(F)(F)F)cc2)nc1Cc1cccc(OC(F)(F)F)c1 [Compound 15]
Plant response rating, Itchgrass: 80

###

Plant response rating, Redroot pigweed: recorded values
Tested on: pigweed (Amaranthus retroflexus)
experiment.notes: Test B pre-/postemergence
Type: in vivo
Set-up: key: 0 is no effect; 10 is complete control
measurement.parameters: Rate 250 g/ha, Preemergence

compound: Cc1cnc(-c2ccc(C(F)(F)F)cc2)nc1Cc1cccc(C(F)(F)F)c1
target.of.assay: pigweed (Amaranthus retroflexus)
Plant response rating, Redroot pigweed: 10
//
compound: Cc1cnc(-n2cnc(C(F)(F)F)n2)nc1Cn1ccc(C(F)(F)F)n1
target.of.assay: pigweed (Amaranthus retroflexus)
Plant response rating, Redroot pigweed: 10
//
compound: O=C(c1cccc(C(F)(F)F)c1)c1ccnc(-n2ccc(C(F)(F)F)n2)n1
target.of.assay: pigweed (Amaranthus retroflexus)
Plant response rating, Redroot pigweed: 0
//
compound: Cc1cnc(-c2ccc(Cl)cc2)nc1Cn1ccc(C(F)(F)F)n1
target.of.assay: pigweed (Amaranthus retroflexus)
Plant response rating, Redroot pigweed: 6
//
compound: Cc1cnc(-n2cnc(C(F)(F)F)n2)nc1C(=O)c1cccc(OC(F)(F)F)c1
target.of.assay: pigweed (Amaranthus retroflexus)
Plant response rating, Redroot pigweed: 10
//
compound: O=C(c1cccc(C(F)(F)F)c1)c1ccnc(-c2ccc(C(F)(F)F)cc2)n1
target.of.assay: pigweed (Amaranthus retroflexus)
Plant response rating, Redroot pigweed: 0
//
compound: Cc1cnc(-n2ccc(C(F)(F)F)n2)nc1C(=O)c1cccc(OC(F)(F)F)c1
target.of.assay: pigweed (Amaranthus retroflexus)
Plant response rating, Redroot pigweed: 9
//
compound: Cc1cnc(-c2ccc(C(F)(F)F)cc2)nc1C(C)c1cccc(C(F)(F)F)c1 (racemic)
target.of.assay: pigweed (Amaranthus retroflexus)
Plant response rating, Redroot pigweed: 0
//
compound: Cc1cnc(-n2ccc(C(F)(F)C(F)(F)F)n2)nc1C(=O)c1cccc(C(F)(F)F)c1
target.of.assay: pigweed (Amaranthus retroflexus)
Plant response rating, Redroot pigweed: 10
//
compound: O=C(c1cccc(C(F)(F)F)c1)c1ccnc(-c2ccc(F)cc2F)n1
target.of.assay: pigweed (Amaranthus retroflexus)
Plant response rating, Redroot pigweed: 0
//
compound: Cc1cnc(-c2ccc(C(F)(F)F)cc2)nc1Cn1ccc(C(F)(F)F)n1
target.of.assay: pigweed (Amaranthus retroflexus)
Plant response rating, Redroot pigweed: 10
//
compound: Cc1cnc(-c2ccc(C(F)(F)F)cc2)nc1Cn1cnc(C(F)(F)F)c1
target.of.assay: pigweed (Amaranthus retroflexus)
Plant response rating, Redroot pigweed: 7
//
compound: Cc1cnc(-n2ccc(C(F)(F)F)n2)nc1Cn1ccc(C(F)(F)F)n1
target.of.assay: pigweed (Amaranthus retroflexus)
Plant response rating, Redroot pigweed: 10
//
compound: Cc1cnc(-n2cnc(C(F)(F)F)c2)nc1C(=O)c1cccc(C(F)(F)F)c1
target.of.assay: pigweed (Amaranthus retroflexus)
Plant response rating, Redroot pigweed: 9
